# Target desc: Progesterone receptor (Homo sapiens, UniProt P06401)
# Sequence (P06401 whole entry): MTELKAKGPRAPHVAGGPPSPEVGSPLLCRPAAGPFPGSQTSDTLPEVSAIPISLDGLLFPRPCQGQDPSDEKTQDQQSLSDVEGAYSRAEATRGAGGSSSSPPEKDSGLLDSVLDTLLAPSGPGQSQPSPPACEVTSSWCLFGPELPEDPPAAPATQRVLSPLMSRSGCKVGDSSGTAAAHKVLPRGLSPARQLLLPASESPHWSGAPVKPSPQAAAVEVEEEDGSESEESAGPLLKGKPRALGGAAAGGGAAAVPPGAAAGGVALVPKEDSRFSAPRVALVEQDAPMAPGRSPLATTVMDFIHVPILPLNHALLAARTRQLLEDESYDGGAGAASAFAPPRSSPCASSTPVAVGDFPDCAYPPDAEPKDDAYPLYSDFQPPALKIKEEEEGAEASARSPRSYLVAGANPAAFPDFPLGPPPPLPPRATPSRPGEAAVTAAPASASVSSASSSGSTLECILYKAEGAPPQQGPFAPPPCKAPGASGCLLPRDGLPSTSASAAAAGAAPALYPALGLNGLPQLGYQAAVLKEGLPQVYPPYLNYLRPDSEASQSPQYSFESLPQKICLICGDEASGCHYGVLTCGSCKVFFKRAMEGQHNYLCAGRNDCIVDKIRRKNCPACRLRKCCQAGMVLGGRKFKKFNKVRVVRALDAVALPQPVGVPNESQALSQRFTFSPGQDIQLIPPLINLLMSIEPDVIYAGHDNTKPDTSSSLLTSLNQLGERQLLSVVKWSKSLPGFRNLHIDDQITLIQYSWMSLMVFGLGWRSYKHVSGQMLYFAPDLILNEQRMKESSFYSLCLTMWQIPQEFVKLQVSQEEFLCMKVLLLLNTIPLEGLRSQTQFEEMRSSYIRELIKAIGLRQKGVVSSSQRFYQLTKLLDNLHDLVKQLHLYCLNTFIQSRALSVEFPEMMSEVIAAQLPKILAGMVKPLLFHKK
Property name: Ki

[
  {
    "Smiles": "CN[C@@H](C(=O)N(C)[C@H]1CC[C@@]2(C)C(=CC[C@H]3[C@@H]4CC[C@@H]5[C@H](C)N(C)C[C@@]54CC[C@@H]32)C1)C(C)C",
    "Target desc": "Progesterone receptor (Homo sapiens, UniProt P06401)",
    "Result": "> 30 µM"
  }
]

----------
# Assay explanation: Binding affinity at serotonin receptor
pKi: −log10 of the molar value.
Property name: pKi

[
  {
    "Smiles": "CN[C@@H](C(=O)N(C)[C@H]1CC[C@@]2(C)C(=CC[C@H]3[C@@H]4CC[C@@H]5[C@H](C)N(C)C[C@@]54CC[C@@H]32)C1)C(C)C",
    "Result": "< 5.00"
  }
]

----------
# Target desc: UniProt:Q9Y5N1
# Sequence (Q9Y5N1 whole entry): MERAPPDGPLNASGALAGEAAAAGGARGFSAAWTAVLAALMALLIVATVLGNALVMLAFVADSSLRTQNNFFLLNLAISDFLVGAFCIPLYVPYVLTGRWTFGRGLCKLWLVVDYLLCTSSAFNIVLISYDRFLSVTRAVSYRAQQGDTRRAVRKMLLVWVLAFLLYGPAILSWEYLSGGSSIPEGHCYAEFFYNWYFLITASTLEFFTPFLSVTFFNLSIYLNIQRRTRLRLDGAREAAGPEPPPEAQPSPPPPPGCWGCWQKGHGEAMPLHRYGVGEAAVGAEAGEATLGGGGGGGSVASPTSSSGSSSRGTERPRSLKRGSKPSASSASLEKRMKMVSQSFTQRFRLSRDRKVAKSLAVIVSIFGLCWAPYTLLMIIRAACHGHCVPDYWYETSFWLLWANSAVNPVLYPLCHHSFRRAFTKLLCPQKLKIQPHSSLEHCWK
# Assay explanation: Displacement of [3H]NAMH from human full length histamine H3 receptor expressed in rat C6 cells
# Assay type: cell-based
pKi: −log10 of the molar value.
Decision: pKi compared against 8; not below it gives TRUE, below it gives FALSE.

[
  {
    "Smiles": "CN[C@@H](C(=O)N(C)[C@H]1CC[C@@]2(C)C(=CC[C@H]3[C@@H]4CC[C@@H]5[C@H](C)N(C)C[C@@]54CC[C@@H]32)C1)C(C)C",
    "Class label": "TRUE"
  },
  {
    "Smiles": "C[C@H]1[C@H]2CC[C@H]3[C@@H]4CC=C5C[C@@H](N(C)C(=O)N(C)C)CC[C@]5(C)[C@H]4CC[C@]23CN1C",
    "Class label": "FALSE"
  },
  {
    "Smiles": "C[C@H]1[C@H]2CC[C@H]3[C@@H]4CC=C5C[C@@H](N(C)C(=O)OCC(Cl)(Cl)Cl)CC[C@]5(C)[C@H]4CC[C@]23CN1C",
    "Class label": "FALSE"
  },
  {
    "Smiles": "CN1C[C@]23CC[C@H]4[C@@H](CC=C5C[C@@H](N(C)C)CC[C@@]54C)[C@@H]2CC[C@@H]3C1=O",
    "Class label": "FALSE"
  },
  {
    "Smiles": "C[C@H]1[C@H]2CC[C@H]3[C@@H]4CC=C5C[C@@H](N(C)C(=O)Cc6cccs6)CC[C@]5(C)[C@H]4CC[C@]23CN1C",
    "Class label": "TRUE"
  },
  {
    "Smiles": "CC[C@@H](C)[C@@H](N)C(=O)N(C)[C@H]1CC[C@@]2(C)C(=CC[C@H]3[C@@H]4CC[C@@H]5[C@H](C)N(C)C[C@@]54CC[C@@H]32)C1",
    "Class label": "TRUE"
  },
  {
    "Smiles": "C[C@H]1[C@H]2CC[C@H]3[C@@H]4CC=C5C[C@@H](N(C)c6ccc(C#N)cc6)CC[C@]5(C)[C@H]4CC[C@]23CN1C",
    "Class label": "TRUE"
  },
  {
    "Smiles": "CC(=O)N[C@@H](Cc1ccccc1)C(=O)N(C)[C@H]1CC[C@@]2(C)C(=CC[C@H]3[C@@H]4CC[C@@H]5[C@H](C)N(C)C[C@@]54CC[C@@H]32)C1",
    "Class label": "TRUE"
  },
  {
    "Smiles": "C[C@H]1[C@H]2CC[C@H]3[C@@H]4CC=C5C[C@@H](N(C)S(=O)(=O)N(C)C)CC[C@]5(C)[C@H]4CC[C@]23CN1C",
    "Class label": "FALSE"
  },
  {
    "Smiles": "C[C@H]1[C@H]2CC[C@H]3[C@@H]4CC=C5C[C@@H](N(C)C(=O)C6CC6)CC[C@]5(C)[C@H]4CC[C@]23CN1C",
    "Class label": "FALSE"
  },
  {
    "Smiles": "COC(=O)N(C)[C@H]1CC[C@@]2(C)C(=CC[C@H]3[C@@H]4CC[C@@H]5[C@H](C)N(C)C[C@@]54CC[C@@H]32)C1",
    "Class label": "FALSE"
  },
  {
    "Smiles": "C[C@H]1[C@H]2CC[C@H]3[C@@H]4CC=C5C[C@@H](N(C)S(=O)(=O)c6ccc(C#N)cc6)CC[C@]5(C)[C@H]4CC[C@]23CN1C",
    "Class label": "FALSE"
  },
  {
    "Smiles": "CC[C@H](C)[C@H](N)C(=O)N(C)[C@H]1CC[C@@]2(C)C(=CC[C@H]3[C@@H]4CC[C@@H]5[C@H](C)N(C)C[C@@]54CC[C@@H]32)C1",
    "Class label": "TRUE"
  },
  {
    "Smiles": "C[C@H]1[C@H]2CC[C@H]3[C@@H]4CC=C5C[C@@H](N(C)C(=O)c6ccc(C#N)cc6)CC[C@]5(C)[C@H]4CC[C@]23CN1C",
    "Class label": "FALSE"
  },
  {
    "Smiles": "CC(=O)N(C)[C@H]1CC[C@@]2(C)C(=CC[C@H]3[C@@H]4CC[C@@H]5[C@H](C)N(C)C[C@@]54CC[C@@H]32)C1",
    "Class label": "FALSE"
  },
  {
    "Smiles": "CCS(=O)(=O)N(C)[C@H]1CC[C@@]2(C)C(=CC[C@H]3[C@@H]4CC[C@@H]5[C@H](C)N(C)C[C@@]54CC[C@@H]32)C1",
    "Class label": "FALSE"
  },
  {
    "Smiles": "CC(=O)N[C@@H](CC(C)C)C(=O)N(C)[C@H]1CC[C@@]2(C)C(=CC[C@H]3[C@@H]4CC[C@@H]5[C@H](C)N(C)C[C@@]54CC[C@@H]32)C1",
    "Class label": "TRUE"
  },
  {
    "Smiles": "C[C@H]1[C@H]2CC[C@H]3[C@@H]4CC=C5C[C@@H](N(C)C)CC[C@]5(C)[C@H]4CC[C@]23CN1C",
    "Class label": "TRUE"
  }
]

----------
# Assay explanation: Binding affinity at cholinergic receptor

[
  {
    "Smiles": "CN[C@@H](C(=O)N(C)[C@H]1CC[C@@]2(C)C(=CC[C@H]3[C@@H]4CC[C@@H]5[C@H](C)N(C)C[C@@]54CC[C@@H]32)C1)C(C)C",
    "Ki": "> 10 µM"
  }
]

----------
# Assay explanation: Drug level in rat brain at 1 mg/kg, ip after 1 hr
# Assay type: ADME, organism-based
# Set-up: dose 1 mg/kg, route intraperitoneal
# Condition details: read-out: Drug uptake

[
  {
    "Molecule": "C[C@H]1[C@H]2CC[C@H]3[C@@H]4CC=C5C[C@@H](N(C)C)CC[C@]5(C)[C@H]4CC[C@]23CN1C [CONESSINE]",
    "concentration at 1 h, ng/g": 6570
  }
]

----------
# Assay explanation: Ratio of drug level in brain to plasma at 1 mg/kg, ip after 24 hrs
# Format: ADME, organism-based
# Parameters: dose 1 mg/kg, route intraperitoneal
# Condition details: rat

[
  {
    "Smiles": "C[C@H]1[C@H]2CC[C@H]3[C@@H]4CC=C5C[C@@H](N(C)C)CC[C@]5(C)[C@H]4CC[C@]23CN1C",
    "Kp at 24 h": 114
  }
]
